test: Cytotoxicity assay; format: cell-based; conditions: human, TZM-GFP cells
Reported metric: CC50 at 72 h (µM)
Output spec: scalar in µM, unitless text.

State, in one line, measured CC50 at 72 h of CN(C(=O)[C@H](Cc1ccccc1)NC(=O)Cc1c[nH]c2ccccc12)c1ccc(Cl)nc1 57
